Recorded values, source ChEMBL document CHEMBL1153277.

target: Neuronal acetylcholine receptor subunit alpha-7 (Homo sapiens); assay: Agonist activity at human recombinant alpha7 nAChR expressed in rat GH3 cells by calcium influx assay
observable: log10 EC50 (log10 of the value in µM)
Plainly stated, the numbers are log10 of EC50 given in µM.

Some solved cases for reference:
compound: COc1ccccc1[C@@H]1C[C@H](CN2CCCCC2)C(=O)N1C (relative stereo)
log10 EC50: 0.10
--
compound: CN1C(=O)[C@@H](CN2CCCCC2)C[C@H]1c1nc(-c2ccccc2Cl)c[nH]1 (relative stereo)
log10 EC50: 0.10

// compound CN1C(=O)[C@@H](CN2CCCCC2)C[C@H]1c1ccc(Cl)cc1 (relative stereo) , assay Neuronal acetylcholine receptor subunit alpha-7 (Homo sapiens), log10 EC50 value: 0.00

// assay Neuronal acetylcholine receptor subunit alpha-7 (Homo sapiens), entry CN1C(=O)[C@@H](CN2CCCCC2)C[C@H]1c1cccc(Cl)c1 (relative stereo) , log10 EC50 value = 0.00

Let me check: CN1C(=O)[C@@H](CN2CCCCC2)C[C@H]1c1nc(-c2ccccc2Cl)cn1C (relative stereo) , system Neuronal acetylcholine receptor subunit alpha-7 (Homo sapiens), measured log10 EC50 is -0.20

Log: Neuronal acetylcholine receptor subunit alpha-7 (Homo sapiens), compound CN1C(=O)[C@@H](CN2CCCCC2)C[C@H]1C#Cc1ccc2c(ccn2C)c1 (relative stereo) , log10 EC50 = -2.10

log10 EC50 value, target or system Neuronal acetylcholine receptor subunit alpha-7 (Homo sapiens), for CN1C(=O)[C@@H](CN2CCCCC2)C[C@H]1c1ccc(C2CCCCC2)cc1 (relative stereo) : -0.50

Value sought: log10 EC50, system Neuronal acetylcholine receptor subunit alpha-7 (Homo sapiens), item Cc1ccc([C@@H]2C[C@H](CN3CCCCC3)C(=O)N2C)cc1 (relative stereo) . Result: -0.20

Lab entry: Neuronal acetylcholine receptor subunit alpha-7 (Homo sapiens) assay, compound CN1C(=O)[C@@H](CN2CCCCC2)C[C@H]1C#Cc1ccc2c(c1)CCO2 (relative stereo) , log10 EC50 = -2.10

Measured on Neuronal acetylcholine receptor subunit alpha-7 (Homo sapiens), COc1ccc(/C=C2\CCCN=C2c2cccnc2)c(OC)c1 has a documented log10 EC50 of 0.30

Form field log10 EC50 for item CN1C(=O)[C@@H](CN2CCCCCC2)C[C@H]1c1ccccc1Cl (relative stereo) on Neuronal acetylcholine receptor subunit alpha-7 (Homo sapiens): 0.30

Let me check: COc1cccc([C@@H]2C[C@H](CN3CCCCC3)C(=O)N2C)c1 (relative stereo) , system Neuronal acetylcholine receptor subunit alpha-7 (Homo sapiens), measured log10 EC50 is 0.10

Tested on Neuronal acetylcholine receptor subunit alpha-7 (Homo sapiens), the item O=C1NC[C@@]2(CN3CCC2CC3)O1 showed log10 EC50 equal to -0.40

With Neuronal acetylcholine receptor subunit alpha-7 (Homo sapiens) as the test system, CN1C(=O)[C@@H](CN2CCCCC2)C[C@H]1c1ccc(-c2ccccc2)cc1 showed log10 EC50 of 0.10

----------
target: Neuronal acetylcholine receptor subunit alpha-7 (Homo sapiens, UniProt P36544); assay: Agonist activity at human recombinant alpha7 nAChR expressed in rat GH3 cells by calcium influx assay
Sequence (P36544 whole entry): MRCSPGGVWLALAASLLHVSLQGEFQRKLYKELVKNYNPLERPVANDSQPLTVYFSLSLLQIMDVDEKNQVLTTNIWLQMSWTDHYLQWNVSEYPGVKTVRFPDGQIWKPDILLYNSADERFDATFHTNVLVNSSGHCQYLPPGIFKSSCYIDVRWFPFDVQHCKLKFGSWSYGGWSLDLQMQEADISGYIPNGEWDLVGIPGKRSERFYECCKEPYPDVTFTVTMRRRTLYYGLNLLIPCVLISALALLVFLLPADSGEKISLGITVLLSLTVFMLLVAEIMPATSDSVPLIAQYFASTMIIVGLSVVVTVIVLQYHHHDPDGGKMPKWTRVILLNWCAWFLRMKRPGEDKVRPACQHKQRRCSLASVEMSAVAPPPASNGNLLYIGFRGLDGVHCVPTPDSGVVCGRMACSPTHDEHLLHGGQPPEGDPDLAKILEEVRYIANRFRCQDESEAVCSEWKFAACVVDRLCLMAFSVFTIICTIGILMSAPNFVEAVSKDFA
Below is a list of entries, each paired with its recorded pEC50 value.
The value called pEC50 is obtained by taking minus log10 of the concentration in mol/L.

Recorded results for 3 compounds are shown here.
compound: CN1C(=O)[C@@H](CN2CCCCC2)C[C@H]1c1ccc(-c2ccccc2F)cc1 (relative stereo)
quantitative_result: 6.50

compound: Cc1cc([C@@H]2C[C@H](CN3CCCCC3)C(=O)N2C)sc1-c1ccccc1Cl (relative stereo)
quantitative_result: 6.20

compound: COc1cccc([C@@H]2C[C@H](CN3CCCC3)C(=O)N2C)c1 (relative stereo)
quantitative_result: 5.10

Assay Neuronal acetylcholine receptor subunit alpha-7 (Homo sapiens, UniProt P36544), sample CN1C(=O)[C@@H](CN2CCCCC2)C[C@H]1C#Cc1ccccc1Cl , pEC50 read: 7.60

Assay Neuronal acetylcholine receptor subunit alpha-7 (Homo sapiens, UniProt P36544), sample CN1C(=O)[C@@H](CN2CCCCC2)C[C@H]1C#Cc1ccccc1 (relative stereo) , pEC50 read: 8.00

Entry CN1C(=O)[C@@H](CN2CCCCC2)C[C@H]1c1ccc(-c2ccccc2Cl)s1 (relative stereo) : pEC50 on Neuronal acetylcholine receptor subunit alpha-7 (Homo sapiens, UniProt P36544) = 7.50
